In what follows, each item is paired with its pIC50 for JAK1 (Homo sapiens (Human), UniProt P23458).
pIC50: −log10 of the molar value.
endpoint: pIC50

Example entries and their recorded answers appear below.
- CC1(C)[C@H](Nc2c(C(N)=O)cnn3cc(-c4ccccc4)cc23)CC[C@@]1(C)O: 10.00
- COc1ncc(-c2cc3c(N[C@@H]4CC[C@](C)(N)C4(C)C)c(C(N)=O)cnn3c2)cn1: 7.60
- CC1(C)[C@H](Nc2c(C(N)=O)cnn3cc(-c4ccccc4)cc23)CC[C@]1(C)C(N)=O: 8.85
- CC1(C#N)CCCC1Nc1c(C(N)=O)cnn2cc(-c3ccccc3)cc12 (stereo not shown): 9.00
- C[C@]1(O)CC[C@@H](Nc2c(C(N)=O)cnn3cc(-c4cncnc4N)cc23)CC1: 7.43
- C[C@]1(O)CCCC[C@@H]1Nc1c(C(N)=O)cnn2cc(-c3ccccc3)cc12 (racemic): 7.76
- Cc1ccncc1-c1cc2c(N[C@@H]3CC[C@](C)(N)C3(C)C)c(C(N)=O)cnn2c1: 8.89
- C[C@]1(F)CCC[C@H]1Nc1c(C(N)=O)cnn2cc(N3CCOCC3=O)cc12 (racemic): 7.87
- COc1ccc(-c2cc3c(N[C@@H]4CC[C@](C)(C(N)=O)C4(C)C)c(C(N)=O)cnn3c2)cn1: 8.92
- CC1(C)[C@H](Nc2c(C(N)=O)cnn3cc(-c4cccnc4)cc23)CC[C@]1(C)N: 9.15

[a] CC1(C)[C@H](Nc2c(C(N)=O)cnn3cc(-c4ccc(CO)cc4)cc23)CC[C@]1(C)N
[b] COc1ccc(-c2cc3c(N[C@@H]4CC[C@](C)(NS(C)(=O)=O)C4(C)C)c(C(N)=O)cnn3c2)cn1
Determine, for a and b , which has the greater value of pIC50. Response format: the label of the selected entry. a

----------
Target: JAK3 (Homo sapiens (Human), UniProt P52333)
Sequence (P52333 whole entry): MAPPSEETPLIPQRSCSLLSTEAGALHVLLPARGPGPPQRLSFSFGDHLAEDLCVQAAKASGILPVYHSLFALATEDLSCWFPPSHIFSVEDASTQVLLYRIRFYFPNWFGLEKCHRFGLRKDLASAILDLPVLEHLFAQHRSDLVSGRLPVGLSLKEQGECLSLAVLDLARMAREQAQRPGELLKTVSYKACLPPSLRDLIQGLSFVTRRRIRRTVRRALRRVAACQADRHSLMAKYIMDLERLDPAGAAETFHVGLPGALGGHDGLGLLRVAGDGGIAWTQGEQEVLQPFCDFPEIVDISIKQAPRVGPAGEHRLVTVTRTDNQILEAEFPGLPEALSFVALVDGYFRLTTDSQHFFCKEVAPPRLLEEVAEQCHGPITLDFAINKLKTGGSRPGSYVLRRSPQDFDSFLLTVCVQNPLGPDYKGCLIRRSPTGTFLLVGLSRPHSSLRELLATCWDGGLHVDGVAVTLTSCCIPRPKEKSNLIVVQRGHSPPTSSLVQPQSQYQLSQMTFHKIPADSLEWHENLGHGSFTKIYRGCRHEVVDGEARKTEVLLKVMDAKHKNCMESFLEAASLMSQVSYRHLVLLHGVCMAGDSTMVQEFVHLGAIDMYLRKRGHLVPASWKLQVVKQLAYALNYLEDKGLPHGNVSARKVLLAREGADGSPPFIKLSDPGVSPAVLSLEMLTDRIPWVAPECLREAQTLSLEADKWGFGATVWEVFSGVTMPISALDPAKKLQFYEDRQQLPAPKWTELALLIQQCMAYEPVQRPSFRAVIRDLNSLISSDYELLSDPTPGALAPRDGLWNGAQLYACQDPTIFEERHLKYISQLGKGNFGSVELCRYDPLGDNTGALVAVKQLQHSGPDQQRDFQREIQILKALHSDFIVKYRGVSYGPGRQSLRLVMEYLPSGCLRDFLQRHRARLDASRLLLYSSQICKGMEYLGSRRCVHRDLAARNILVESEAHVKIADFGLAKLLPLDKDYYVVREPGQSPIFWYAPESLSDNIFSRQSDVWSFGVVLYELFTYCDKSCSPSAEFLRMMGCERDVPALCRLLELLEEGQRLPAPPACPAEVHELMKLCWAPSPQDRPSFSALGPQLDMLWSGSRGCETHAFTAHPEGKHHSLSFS
pIC50: −log10 of the molar value.
endpoint: pIC50

Example entries and their recorded answers appear below.
• CC(C)c1ccccc1-c1cc2c(N[C@@H]3CCC[C@]3(C)F)c(C(N)=O)cnn2c1 (racemic) = 6.87
• Cc1cccc(C)c1-c1cc2c(NC3C4CC5CC3CC(O)(C5)C4)c(C(N)=O)cnn2c1 (stereo not shown) = 6.28
• CC1(C)[C@H](Nc2c(C(N)=O)cnn3cc(-c4ccc(CO)cc4)cc23)CC[C@]1(C)N = 9.52
• CCS(=O)(=O)Nc1cc2c(N[C@@H]3CC[C@@](C)(O)C3(C)C)c(C(N)=O)cnn2c1 (racemic) = 8.09
• CC1(C)CCC[C@H]1Nc1c(C(N)=O)cnn2cc(-c3ccccc3)cc12 = 9.30

[I] CC1(C)[C@H](Nc2c(C(N)=O)cnn3cc(-c4ccccc4)cc23)CC[C@]1(C)C(N)=O
[II] CC1(C)[C@H](Nc2c(C(N)=O)cnn3cc(NS(=O)(=O)c4ccc(Cl)cc4)cc23)CC[C@@]1(C)O (racemic)
Determine, for I and II , which has the greater value of pIC50. Response format: the label of the selected entry. I
(I: 9.40, II: 7.63)

----------
In what follows, each item is paired with its pIC50 for JAK3 (Homo sapiens (Human)).
pIC50: −log10 of the molar value.
endpoint: pIC50

Example entries and their recorded answers appear below.
• CC1(C)[C@@H](Nc2c(C(N)=O)cnn3cc(-c4ccc(C#N)cc4)cc23)CC[C@@]1(C)N = 8.03
• CC1(C)[C@H](Nc2c(C(N)=O)cnn3cc(-c4ccccc4)cc23)CC[C@]1(C)NS(C)(=O)=O = 9.00
• CC1(C)[C@H](Nc2c(C(N)=O)cnn3cc(N4CCCC4=O)cc23)CC[C@]1(C)N = 8.77
• CC1(C)[C@H](Nc2c(C(N)=O)cnn3cc(NS(C)(=O)=O)cc23)CC[C@@]1(C)O (racemic) = 8.22
• C[C@]1(O)CC[C@@H](Nc2c(C(N)=O)cnn3cc(-c4cncnc4)cc23)CC1 = 7.77

[A] CC1(C)[C@H](Nc2c(C(N)=O)cnn3cc(-c4ccc(N5CCCC5)nc4)cc23)CC[C@]1(C)N
[B] COc1cncc(-c2cc3c(N[C@@H]4CC[C@](C)(N)C4(C)C)c(C(N)=O)cnn3c2)c1
Determine, for A and B , which has the greater value of pIC50. Response format: the label of the selected entry. B
